Target: T1, human TL1A extracellular domain with N-terminal HIS and FLAG tag (human) (UniProt O95150)
T1 sequence: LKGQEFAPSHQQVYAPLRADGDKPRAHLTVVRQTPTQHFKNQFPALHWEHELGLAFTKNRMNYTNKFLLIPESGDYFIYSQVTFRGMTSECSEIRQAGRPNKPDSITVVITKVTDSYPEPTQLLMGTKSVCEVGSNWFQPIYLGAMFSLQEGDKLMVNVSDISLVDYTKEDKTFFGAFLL
Test: cell-based or functional assay
// Fold improvement over 320-179, TL1A induced caspase potency assay in TF-1 cells lookup, one value per entry
Unit fold implied. Number only.

Here are 2 binders together with their reported answers.
{"BINDER": "320-307 (antibody, human IgG1, name in Kabat numbering, V domains shown, human IgG1, lambda) VH: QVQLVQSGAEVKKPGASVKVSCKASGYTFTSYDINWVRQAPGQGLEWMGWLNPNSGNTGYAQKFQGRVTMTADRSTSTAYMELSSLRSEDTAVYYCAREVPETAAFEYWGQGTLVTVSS VL: QSVLTQPPSVSGAPGQRVTISCTSSSSDIGAGLGVLWYQQLPGTAPKLLIEGYYNRPSGVPDRFSGSKSGTSASLTITGLLPEDEGDYYCQSYDGTLSALFGGGTKLTVLG", "OBS_VALUE": 4}
{"BINDER": "320-477 (antibody, human IgG1, name in Kabat numbering, V domains shown, human IgG1, lambda) VH: QVQLVQSGAEVKKPGASVKVSCKASGYTFTHYDINWVRQAPGQGLEWMGWLNPNSGNTGYAQKFQGRVTMTADRSTSTAYMELSSLRSEDTAVYYCAREVPETAAFEYWGQGTLVTVSS VL: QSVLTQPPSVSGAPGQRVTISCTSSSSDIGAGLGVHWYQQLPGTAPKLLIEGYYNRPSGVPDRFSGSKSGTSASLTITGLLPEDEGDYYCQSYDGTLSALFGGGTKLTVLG", "OBS_VALUE": 1}

Turning now to a further binder:
### Prompt Given the binder 320-185 (antibody, human IgG1, name in Kabat numbering, V domains shown, human IgG1, lambda) VH: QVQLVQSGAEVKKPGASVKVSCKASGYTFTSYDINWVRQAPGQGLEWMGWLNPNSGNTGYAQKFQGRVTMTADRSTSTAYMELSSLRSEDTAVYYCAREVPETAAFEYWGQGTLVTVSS VL: QSVLTQPPSVSGAPGQRVTISCTSSSSDIGAGLGVHWYQQLPGTAPKLLIEGYYNRPSGVPDRFSGSKSGTSASLTITGLSPEDEGDYYCQSYDGTLSALFGGGTKLTVLG , what is its reported Fold improvement over 320-179, TL1A induced caspase potency assay in TF-1 cells?
### Response 2
